Experiment: Plasma and brain pharmacokinetics after oral administration
Type: in vivo
Conditions: Sprague-Dawley, rat; Brain; 10 mg/kg oral, S.D. rats
observed-property: half-life (h)
Number in h, nothing else.

Asked: Bench note: what half-life did Cl.N[C@@H](CCC(=O)NNc1ccccc1F)C(F)F show?
Given back: 1.57

====

Assay: Plasma pharmacokinetics after IV and PO administration
Format: in vivo
Conditions: Sprague-Dawley, rat, in vivo; IV, 10 mg/kg, S.D. rats; read-out: AUC0-7h
observed-property: AUC(0-t) (ng·h/mL)
Number in ng·h/mL, nothing else.

Asked: Bench note: what AUC(0-t) did Cl.N[C@@H](CCC(=O)NNc1ccccc1F)C(F)F show?
Given back: 5700

====

Experiment: Microsomal stability
Type: in vitro ADME
Conditions: human, mouse, rat, dog, monkey, liver microsomes, 30 minutes 37 ℃, with and without NADPH, across all microsomes tested
observed-property: remaining at 0.5 h, 1 μM

Asked: Bench note: what remaining at 0.5 h, 1 μM did Cl.N[C@@H](CCC(=O)NNc1ccccc1F)C(F)F show?
Given back: > 90%

====

Assay: Plasma pharmacokinetics after IV and PO administration
Assay type: in vivo
Conditions: Sprague-Dawley, rat, in vivo; IV, 10 mg/kg, S.D. rats
observed-property: half-life (h)
Number in h, nothing else.

Asked: Bench note: what half-life did Cl.N[C@@H](CCC(=O)NNc1ccccc1F)C(F)F [RA-PR058] show?
Given back: 1.06

====

Test: Plasma and brain pharmacokinetics after oral administration
Format: in vivo
Settings: Sprague-Dawley, rat; Plasma; 10 mg/kg oral, S.D. rats; read-out: AUC0-7h
observed-property: AUC(0-t) (ng·h/mL)
Number in ng·h/mL, nothing else.

Asked: Bench note: what AUC(0-t) did Cl.N[C@@H](CCC(=O)NNc1ccccc1F)C(F)F show?
Given back: 5700

====

Test: Plasma pharmacokinetics after IV and PO administration
Format: in vivo
Settings: Sprague-Dawley, rat, plasma; PO, 10 mg/kg, S.D. rats
Method: Pharmacokinetic assays were conducted by NeuroVis (Republic of Korea). 10 mg/kg of RA-PR058 was administered to Sprague–Dawley rats by either oral administration route or intravenous injection route. Blood sampling was conducted using the BASi Culex ABS system. […] The resulting supernatants were then combined with 50% methanol and analyzed by LC-MS/MS.
observed-property: Tmax (min)
Number in min, nothing else.

Asked: Bench note: what Tmax did Cl.N[C@@H](CCC(=O)NNc1ccccc1F)C(F)F [RA-PR058] show?
Given back: 27.5

====

Test: Plasma and brain pharmacokinetics after oral administration
Assay type: in vivo
Conditions: Sprague-Dawley, rat; Brain; 10 mg/kg oral, S.D. rats
observed-property: Cmax (ng/mL)
Number in ng/mL, nothing else.

Asked: Bench note: what Cmax did Cl.N[C@@H](CCC(=O)NNc1ccccc1F)C(F)F show?
Given back: 3190

====

Assay: Plasma and brain pharmacokinetics after oral administration
Format: in vivo
Conditions: Sprague-Dawley, rat; Plasma; 10 mg/kg oral, S.D. rats
observed-property: half-life
Write down the value, and be sure its unit follows.

Asked: Bench note: what half-life did Cl.N[C@@H](CCC(=O)NNc1ccccc1F)C(F)F show?
Given back: 1.06 h

====

Experiment: Plasma pharmacokinetics after IV and PO administration
Type: in vivo
Details: Sprague-Dawley, rat, in vivo; IV, 10 mg/kg, S.D. rats
observed-property: Cmax (ng/mL)
Number in ng/mL, nothing else.

Asked: Bench note: what Cmax did Cl.N[C@@H](CCC(=O)NNc1ccccc1F)C(F)F show?
Given back: 4260

====

Assay: Plasma pharmacokinetics after IV and PO administration
Type: in vivo
Conditions: Sprague-Dawley, rat, plasma; IV, 10 mg/kg, S.D. rats
observed-property: Tmax (min)
Number in min, nothing else.

Asked: Bench note: what Tmax did Cl.N[C@@H](CCC(=O)NNc1ccccc1F)C(F)F show?
Given back: 17.5

====

Assay: Plasma and brain pharmacokinetics after oral administration
Type: in vivo
Details: Sprague-Dawley, rat; Plasma; 10 mg/kg oral, S.D. rats
observed-property: Cmax (ng/mL)
Number in ng/mL, nothing else.

Asked: Bench note: what Cmax did Cl.N[C@@H](CCC(=O)NNc1ccccc1F)C(F)F show?
Given back: 3900

====

Assay: Plasma pharmacokinetics after IV and PO administration
Format: in vivo
Conditions: Sprague-Dawley, rat, in vivo; PO, 10 mg/kg, S.D. rats
observed-property: half-life (h)
Number in h, nothing else.

Asked: Bench note: what half-life did Cl.N[C@@H](CCC(=O)NNc1ccccc1F)C(F)F show?
Given back: 1.57
